assay: soluble on expression in E. coli; label from the status in PepcDB or PDB records

INPUT_SEQUENCE	soluble on expression in E. coli
MEALGKTILASDDINSIKKNLAKHIVHLNEENEKYRNEIKLLKKNKDINNQILFTLNKTEISSDMIDSLFMQTKNVIIQVTNKKY	not soluble
MRRKIMMATLIVIAVNFIWSGQPVKACTRAVYIGPDNMVITGRTMDWKEDIQSNLYLFPRGIKRAGYNKGNTVEWISKYGSIVATGYDIGTCDGMNEKGLVASLLFLPESIYVRPNDTRPVMGISIWTQYVLDNFATVSEAVEELKKQTFRIDAPDMPNGSASTLHMAITDETGNSAVLEYIDGNLIIHEGKEYQVMTNSPRYDLQLAVNDYWKEVGGLNMLPGTNRSSDRFVRASFYIHAIPQTSDAKIAVPSVLSVMRNVSVPFGITTLDKPYISSTRWRSVSDQKNRVYYFESTLTPNLFWIDLHKVDFSPNASIKKLSLTHGEVYAGDVVKDFKDSRSFTFMFELPK	not soluble
MAHHHHHHMNEEILKNIKVNNNFLEFEEIIKDINTPFNFIDLVEIPCVPVVDLYGLSLLNNEAYLEYKSGLREDKLNADDEIKLTLFFAVKLYKKNIIRIKFPSYYDIIETLKFDPVSVTIGLFNQFYFETAYELCNLLPINEWPSTNFYDILRKAEKTRIHFLINNKTKLNSYFLEGLTNKEKKIYKYFLEGTSKEREKLNKETTLFHFYEKEKC	not soluble
MEFNLHAVSSEEKERDFDVVIVGAGAAGFSAAVYAARSGFSVAILDKAVAGGLTAEAPLVENYLGFKSIVGSELAKLFADHAANYAKIREGVEVRSIKKTQGGFDIETNDDTYHAKYVIITTGTTHKHLGVKGESEYFGKGTSYCSTCDGYLFKGKRVVTIGGGNSGAIAAISMSEYVKNVTIIEYMPKYMCENAYVQEIKKRNIPYIMNAQVTEIVGDGKKVTGVKYKDRTTGEEKLIETDGVFIYVGLIPQTSFLKDSGVKLDERGYIVVDSRQRTSVPGVYAAGDVTSGNFAQIASAVGDGCKAALSLYSDSISKK	soluble
GMAKIEKNAPTMEKKPELFNIMEVDGVPTLILSKEWWEKVANFQAKPDDLILATYPKSGTTWMHEILDMILNDGDVEKCKRAQTLDRHAFLELKFPHKEKPDLEFVLEMSSPQLIKTHLPSHLIPPSIWKENCKIVYVARNPKDCLVSYYHFHRMASFMPDPQNLEEFYEKFMSGKVVGGSWFDHVKGWWAAKDMHRILYLFYEDIKKDPKREIEKILKFLEKDISEEILNKIIYHTSFDVMKQNPMTNYTTLPTSIMDHSISPFMRKGMPGDWKNYFTVAQNEEFDKDYQKKMAGSTLTFRTEI	soluble
MGSDKIHHHHHHMSKIFAQDTDCSFLIEQAVKAPSGHNTQPWTFRIKETGIDILPDFTKTLPVVDPDNRELFVSLGCATENLCVAAAHKGYETMVSIAENGTIHIELTKQDSDTPSPLFPHISVRQTNRSVYDGNTIPVNDIVALGEKSDMEPCVGAHFFKNGTREFDAISEMVCEGNSIQMRDKKFKEELQQWMRYNKKHQDATRDGLSYAVFGAPNLSRFIAKAIITRLINEKSQNRNDRRKIASSSHFVLFTTSNNTVVQWIKLGRALEHILLKATGMGISHAYMNQPNEVQGLSGKMAEILGIEDEYPTVLIRLGYGSKMPYSLRRSVQSCIIPNSFD	not soluble
MSHHRSAFFISDRTGITAESLGHTLLTQFDALDFQRETVPFVDTVEKARALAERISEIAERDHLRPLVFTSIVNPEVREALRLNNVVLIDFFESFIGHLEIELGQKATLTVGKAHGMVNEEKYDHRIEAVNFSLNHDDGVKLKDLHEADVILVGVSRSGKTPTCLYLALQYGIRAANYPLTPEDLGSPTLPKMLLPFKDKMFGLTIDPNRLHHIRSERRPDSKYASMDNCRREVNEAESMFRHHGVPFISTTHKSIEEIASTIMHKAALGRKFLEHHHHHH	soluble
MLPFLPEPSLSYTQQNRTAVLLLNLGTPDAPTAQAVRPYLKSFLTDRRIVELPKWLWYPILHGLVLTFRPKKSAHAYEKIWFKEGSPLEVYTARQAAALAERMPDLIVRHAMTYGNPSIADVLAELKSQGVGRLLAIPLYPQYAASSSGAAVDKVCEQLLLQRNQMSVRTISRFYDDAGYIDAMKNHILRYWAEHGRGKKLMLSFHGVPQKHYDLGDPYPDECRHTAKLLAEALELTEDEYTVSFQSQFGRAKWVTPSTQDLFGKLPKQGVTELDVFCPGFLADCLETMEEIALMGREQFYEAGGKNYRYIPCLNDNPDWIDALVALAEENLGGWR	not soluble
MGSDKIHHHHHHMAIETILVINKSGGLIYQRNFTNDEQKLNSNEYLILASTLHGVFAIASQLTPKALQLTQQTNIENTIPYIPYVGMSSNRSDTRNGGGNNNKHTNNEKLGSFKGDDFFKEPFTNWNKSGLRQLCTDQFTMFIYQTLTGLKFVAISSSVMPQRQPTIATTDKPDRPKSTSNLAIQIADNFLRKVYCLYSDYVMKDPSYSMEMPIRSNLFDEKVKKMVENLQ	not soluble
MFRMPIVTMERVDSFSAAHRLHSEKLSDAENKETFGKCNNSNGHGHNYVWKVKLRGEVDPTSGMVYDLAKLKKEMSLVLDTVDHRNLDKDVEFFKTTVSTSENVAIYMFEKLKSVMSNPSVLYKVTIEETPKNIFTYKGC	not soluble
MKLATLKNNTRDGQLVVVNRALDKAVVVSHIAATLQAALDNWSEISPKLAEVYQSLNNNEITDTLVFEQAACESPLPRAYQWADGSAYVNHVELVRKARNAEMPATFWTDPLMYQGGSDAFIGPRDDISIASEEYGIDFESEVAVITDDVPMGISVEQAANHIKLLMLVNDVSLRNLIPGELAKGFGFFASKPSSAFSPVAVTPDELGDAWDGKKLHLPLTTHLNETLFGQPNCGVDMTFDFPTIVAHAAKTRPLSTGCVIGSGTISNYDRSVGSSCLAEIRMLEIIADGKPTTPFMSFGDTVRIEMFDNEGASIFGSIDQKVVEYKAQ	not soluble
KGMTPPKTVNFKMKGVADAAFSHEFHLGMYKCNECHTKLFAYKAGAKRFTMADMDKGKSCGACHNGKDAFSSASDCGKCHPG	soluble
